Target: human TLR7 (Homo sapiens)
Construct: host or cells: HEK-Blue cells
Sequence (Q9NYK1 27-1049): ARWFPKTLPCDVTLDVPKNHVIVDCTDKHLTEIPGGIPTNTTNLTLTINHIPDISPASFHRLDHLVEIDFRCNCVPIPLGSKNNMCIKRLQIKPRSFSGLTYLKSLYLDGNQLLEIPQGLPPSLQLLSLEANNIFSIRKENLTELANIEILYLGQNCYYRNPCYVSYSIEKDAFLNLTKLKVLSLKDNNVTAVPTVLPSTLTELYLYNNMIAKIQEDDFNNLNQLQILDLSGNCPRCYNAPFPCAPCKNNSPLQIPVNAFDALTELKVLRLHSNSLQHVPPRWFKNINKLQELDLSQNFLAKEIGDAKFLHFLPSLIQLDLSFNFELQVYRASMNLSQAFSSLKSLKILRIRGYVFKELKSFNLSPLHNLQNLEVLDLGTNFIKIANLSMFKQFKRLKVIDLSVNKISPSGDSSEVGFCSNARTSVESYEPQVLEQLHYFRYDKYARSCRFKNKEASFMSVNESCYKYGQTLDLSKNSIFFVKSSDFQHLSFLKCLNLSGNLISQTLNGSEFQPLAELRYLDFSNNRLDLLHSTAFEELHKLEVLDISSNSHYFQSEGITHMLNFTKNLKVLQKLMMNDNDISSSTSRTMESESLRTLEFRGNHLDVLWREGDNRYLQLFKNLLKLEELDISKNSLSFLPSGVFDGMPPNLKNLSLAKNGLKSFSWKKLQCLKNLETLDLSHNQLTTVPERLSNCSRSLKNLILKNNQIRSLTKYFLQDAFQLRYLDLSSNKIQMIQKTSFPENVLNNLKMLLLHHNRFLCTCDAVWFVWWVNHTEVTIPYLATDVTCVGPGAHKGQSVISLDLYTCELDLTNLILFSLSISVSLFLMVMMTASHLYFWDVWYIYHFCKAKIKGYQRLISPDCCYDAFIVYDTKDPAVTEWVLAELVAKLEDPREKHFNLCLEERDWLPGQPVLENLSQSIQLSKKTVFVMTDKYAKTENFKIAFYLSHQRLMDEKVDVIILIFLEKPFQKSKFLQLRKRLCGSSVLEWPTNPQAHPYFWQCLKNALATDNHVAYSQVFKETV
Assay: TLR7 inhibition reporter assay (HEK-Blue SEAP)
Format: cell-based
Details: HEK-Blue cells overexpressing human TLR7, gardiquimod 7.5 μM, 22 hour incubation
outcome_measure: IC50 (nM)

Below are worked cases with known answers.
{"columns": ["compound", "tested_target", "IC50, nM"],
 "data": [
  ["COc1cc(-c2cc3[nH]c(=O)n([C@@H]4CCCN(C5CCOCC5)C4)c3cc2C)cn2ncnc12", "human TLR7 (Homo sapiens)", 163],
  ["COc1cc(-c2cc3[nH]c(=O)n([C@H]4CC[C@@H](NC(C)C)CC4)c3cc2C(C)C)cn2ncnc12", "human TLR7 (Homo sapiens)", 1.97],
  ["Cc1cc2c(cc1-c1cc(C)c3ncnn3c1)[nH]c(=O)n2[C@@H]1CCCN(C2CCOCC2)C1", "human TLR7 (Homo sapiens)", 79.5],
  ["Cc1cc2c(cc1-c1cc(C)c3ncnn3c1)[nH]c(=O)n2[C@H]1CC[C@H](NC(C)C)CC1", "human TLR7 (Homo sapiens)", 20.2]
]}

P: COc1cc(-c2cc3[nH]c(=O)n([C@H]4CC[C@H](NC5CCN(C(C)C)CC5)CC4)c3cc2C(C)C)cn2ncnc12
Q: CCc1cc2c(cc1-c1cc(OC)c3ncnn3c1)[nH]c(=O)n2[C@@H]1CCCN(C)C1
# compare IC50 for P vs Q ; return the one with the smaller value Pick one; state its label.
Q

* * *

Biological target: human TLR9 (Homo sapiens)
Assay: TLR9 inhibition reporter assay (HEK-Blue SEAP)
Settings: HEK-Blue cells overexpressing human TLR9, ODN2006 5 nM, 22 hour incubation
outcome_measure: IC50 (µM)

{"columns": ["compound", "outcome_measure", "assay_result"],
 "data": [
  ["COc1cc(-c2ccc3c(c2)[nH]c(=O)n3C2CCN(C3COC3)CC2)cn2ncnc12 [Example 80]", "IC50", 39.6]
]}

I: COc1cc(-c2cc3[nH]c(=O)n([C@@H]4CCCN(C5COC5)C4)c3cc2C)cn2ncnc12 [Example 72]
II: Cc1cc2c(cc1-c1cc(C)c3ncnn3c1)[nH]c(=O)n2[C@@H]1CCCNC1 [1 ED]
III: Cc1cc2c(cc1-c1cc(C)c3ncnn3c1)[nH]c(=O)n2[C@H]1CCCN(C(=O)CN(C)C)C1 [Example 103]
Put the compounds in ascending order of IC50. API: response body holds the labels in the requested order.
II, III, I
(II: 0.524 µM, III: 4.72 µM, I: 45.8 µM)

* * *

Biological target: human TLR9 (Homo sapiens, UniProt Q9NR96)
Sequence (Q9NR96 26-1032): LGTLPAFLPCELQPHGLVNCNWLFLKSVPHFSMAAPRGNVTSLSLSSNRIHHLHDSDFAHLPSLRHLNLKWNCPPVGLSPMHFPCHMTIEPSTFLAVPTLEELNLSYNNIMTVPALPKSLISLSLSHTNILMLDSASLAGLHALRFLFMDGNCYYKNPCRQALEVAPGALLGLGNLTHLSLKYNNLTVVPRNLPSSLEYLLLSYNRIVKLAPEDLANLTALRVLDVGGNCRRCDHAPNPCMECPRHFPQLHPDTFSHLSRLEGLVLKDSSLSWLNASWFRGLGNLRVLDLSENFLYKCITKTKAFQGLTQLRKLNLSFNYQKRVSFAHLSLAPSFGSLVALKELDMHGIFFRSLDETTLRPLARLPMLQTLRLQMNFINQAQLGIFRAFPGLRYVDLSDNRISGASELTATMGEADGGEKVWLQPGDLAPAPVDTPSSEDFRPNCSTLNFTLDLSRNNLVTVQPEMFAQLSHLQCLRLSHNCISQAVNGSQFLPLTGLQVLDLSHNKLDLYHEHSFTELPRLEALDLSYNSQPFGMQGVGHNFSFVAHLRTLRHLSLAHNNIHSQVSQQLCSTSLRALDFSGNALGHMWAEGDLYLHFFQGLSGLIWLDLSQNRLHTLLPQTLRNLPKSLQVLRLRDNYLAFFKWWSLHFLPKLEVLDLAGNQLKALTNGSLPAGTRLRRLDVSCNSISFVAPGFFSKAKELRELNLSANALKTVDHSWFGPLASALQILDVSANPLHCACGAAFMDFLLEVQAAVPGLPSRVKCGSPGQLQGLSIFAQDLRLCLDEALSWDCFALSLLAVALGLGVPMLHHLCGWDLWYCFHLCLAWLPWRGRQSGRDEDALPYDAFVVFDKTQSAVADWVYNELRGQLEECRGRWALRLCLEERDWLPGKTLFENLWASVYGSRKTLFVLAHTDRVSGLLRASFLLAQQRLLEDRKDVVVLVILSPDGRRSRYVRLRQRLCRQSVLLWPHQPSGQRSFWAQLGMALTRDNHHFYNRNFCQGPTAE
Experiment: TLR9 inhibition reporter assay (HEK-Blue SEAP)
Conditions: HEK-Blue cells overexpressing human TLR9, ODN2006 5 nM, 22 hour incubation
pIC50: −log10 of the molar value.
outcome_measure: pIC50

{"columns": ["compound", "tested_target", "assay_result"],
 "data": [
  ["COc1cc(-c2cc3[nH]c(=O)n([C@@H]4CCCN(CCC(F)(F)F)C4)c3cc2C)cn2ncnc12 [Example 68]", "human TLR9 (Homo sapiens, UniProt Q9NR96)", 4.57]
]}

a: COc1cc(-c2cc3[nH]c(=O)n([C@H]4CC[C@H](N(CC(C)C)CC(C)C)CC4)c3cc2C(C)C)cn2ncnc12 [Example 205]
b: COc1cc(-c2cc3[nH]c(=O)n(C4CCC(N(C)CCC(F)(F)F)CC4)c3cc2C(C)C)cn2ncnc12 (single isomer, unassigned) [Example 249]
Compare the recorded pIC50 of a and b ; state which is larger. Pick one; state its label.
b
